observationType: melting point

Past entries and their recorded results:
- molecule: "O=C(Nc1cccc(-n2nc(C(F)(F)F)cc2C(F)(F)F)c1)c1cc([N+](=O)[O-])ccc1Cl"
  melting point: "147 to 152 °C"
- molecule: "CCCc1cc(-c2ccc(Cl)cc2)nc2c(C(=O)Nc3cccc(S(=O)(=O)NC(C)(C)CO)c3)cnn12"
  melting point: "207 to 208 °C"
- molecule: "COc1ccccc1C(=O)N1CCN(C(=O)CN2CCC(O)(c3ccccc3)CC2)C(c2ccc(Cl)c(Cl)c2)C1 (racemic)"
  melting point: "112 to 114 °C"

For each of the items listed, what is its melting point?
1. COC(=O)C(C(=O)OC)c1cc([N+](=O)[O-])ccc1C(=O)O
2. CCCN(CCC)Cc1nc(-c2ncn3c2CN(C)C(=O)c2sccc2-3)no1
3. Cc1nc2cc(C)c(CN(C)c3ccc(C(=O)NC(CO)c4cccc([N+](=O)[O-])c4)cc3)cc2c(=O)[nH]1 (stereo not drawn)
4. Cc1ccc(-c2[nH]c(-c3c(C)cc(C)cc3C)nc2-c2ccncc2)cc1
5. Cc1cc(-c2nc3cccnn3c2-c2ccnc(NC(=O)C3CC3)c2)ccc1F

1: 153 °C; 2: 128 to 130 °C; 3: 231 to 240 °C; 4: 277 to 279 °C; 5: 217 to 218 °C

###

observationType: melting point

- compound: "CC(C)Oc1cc(Oc2ccc(S(C)(=O)=O)cn2)cc2cc(C3=NCC(CC(N)=O)S3)[nH]c12 (stereo not given)"
  experimentalValue: "212 to 213 °C"
- compound: "C[C@@H]1[C@H](O)[C@@H](C)C=C(S(=O)(=O)c2ccccc2)[C@@H]2O[C@H]12"
  experimentalValue: "118 to 120 °C"
- compound: "COc1ccc(-n2cccc2-c2ccc(S(C)(=O)=O)cc2)cc1OC"
  experimentalValue: "124 to 126 °C"

For each of the items listed, what is its melting point?
1. COC(=O)c1ccc(C(=O)OC)c(S(=O)(=O)NC(C)(C)C)c1
2. CCCC(C)(C)C(O)C(c1cccc(Cl)c1)n1cnc(C)c1 (stereo not given)

1: 132 to 134 °C; 2: 121 to 122 °C

###

observationType: melting point

- molecule: "N#Cc1ccc(Nc2nc(Cc3c(Cl)cccc3Cl)cc(NCCN3CCCC3)n2)cc1"
  melting point: "80 to 85 °C"
- molecule: "O=C(Nc1ccc(-n2nc(C(F)(F)F)cc2C2CC2)nc1)c1cccc(F)c1F"
  melting point: "151 to 156 °C"
- molecule: "CCCCN(CCCC)c1cc(OC)c(C=O)c(OC)c1"
  melting point: "55 to 56 °C"
- molecule: "CCn1c2ccccc2c2oc(C(N)=O)cc(=O)c21"
  melting point: "224 to 226 °C"

Supply recorded melting point for CC(C)(CC(=O)c1ccc2c(c1)CC(N1C(=O)c3ccccc3C1=O)C2)C(=O)O (stereo not given) here.
238 to 240 °C

###

Please respond with reported melting point for every item in the list.

- compound: "COc1ccc2c(=O)c(-c3ccc(OCC(O)CN4CCOCC4)cc3)coc2c1 (stereo not drawn)"
  experimentalValue: "117 to 118 °C"

For each of the items listed, what is its melting point?
1. Cc1cccc(Nn2cnc(C)c2-c2ccccc2)c1
2. COc1cc2cc3c(N)c(C(N)=O)sc3nc2cc1OC
3. C#CCn1c(Br)c(Br)c(Br)c1C#N

["159 °C", "278 to 280 °C", "95 to 105 °C"]

For each of the items listed, what is its melting point?
1. CC(C)(C)C(C)(C)Nc1nc(NC(C)(C)C(C)(C)C)nc(N2CCNCC2)n1
2. Cc1[nH]c2ccccc2c1C(=O)CCCl

1: 183 to 185 °C; 2: 137 to 140 °C

###

observationType: melting point

- compound: "CC(C)n1cnc2c(NCc3ccccc3)nc(Cl)nc21"
  experimentalValue: "181 to 182 °C"
- compound: "CC1(C)Cc2c(C(=O)N3CCCC3)sc(Sc3ccccc3)c2-c2oncc21"
  experimentalValue: "49 to 52 °C"
- compound: "CCCCc1nc(=O)c2cc(C#C[Si](C)(C)C)c(F)cc2[nH]1"
  experimentalValue: "192 °C"
- compound: "COC(=O)C(CSc1ccccc1)N1CC(NC(=O)C(=NO)c2ccccc2)C1=O (stereo not given)"
  experimentalValue: "163 to 169 °C"

Please look at the following compound next.
Supply recorded melting point for Cc1nc2n(c1CN(C)C)-c1ccc(Cl)cc1C(c1ccccc1Cl)=NC2 here.
191 to 194 °C

###

observationType: melting point

Past entries and their recorded results:
- compound: "CC1(C)CCC(C)(C)c2cc(NC(=O)c3ccc(C(=O)O)nc3)ccc21"
  observationType: "melting point"
  experimentalValue: "200 to 201 °C"
- compound: "CC(C)(C)OC(=O)Oc1nc2c(N)ncnc2n1Cc1ccccc1"
  observationType: "melting point"
  experimentalValue: "287 to 289 °C"
- compound: "CNC(=O)C1CN(CC(=O)Nc2c(Cl)cc(C(C)=O)cc2Cl)CCN1CCCCN(c1ccc(F)cc1)c1ccc(F)cc1 (centres undefined)"
  observationType: "melting point"
  experimentalValue: "85 °C"
- compound: "CN(CC(=O)N1CCN(Cc2ccc3c(c2)OCO3)CC1)c1ccc(Oc2ccc(NS(=O)(=O)c3ccc(Cl)c(Cl)c3)cn2)c(F)c1"
  observationType: "melting point"
  experimentalValue: "186 to 187 °C"
- compound: "CC(C)(C)c1cc(C(=O)N2CC(O)C2)cc(C(C)(C)C)c1O"
  observationType: "melting point"
  experimentalValue: "185 to 189 °C"
- compound: "CCOC(=O)c1c(C)nc2c(C(F)(F)F)cccc2c1O"
  observationType: "melting point"
  experimentalValue: "165 °C"
- compound: "CC(C)(C)OC(=O)NNC(=O)c1ccc(O)c(O)c1"
  observationType: "melting point"
  experimentalValue: "148 °C"
- compound: "CC(C)(Oc1ccc(Cl)cc1Cl)C(=O)C(Cc1ccc(Cl)cc1)n1cncn1 (centres undefined)"
  observationType: "melting point"
  experimentalValue: "104 to 108 °C"
- compound: "Cc1ccc2c(c1)N=C(N1CCN(C)CC1)c1cc(C)sc1O2"
  observationType: "melting point"
  experimentalValue: "146 to 148 °C"
- compound: "COC1=CC(OC)OC(C)C1=O (centres undefined)"
  observationType: "melting point"
  experimentalValue: "73 to 74.5 °C"

For each of the items listed, what is its melting point?
1. CN(C)/C=C/C(=O)c1ccc2n1Cc1ccccc1N(C(=O)c1ccc(C3CCCCC3)cc1)C2
2. Cc1ccc(S(=O)(=O)N2CCC[C@H]2C(=O)N[C@@H](Cc2ccc(OCCN3CCCCCC3)cc2)C(=O)O)cc1
3. Cn1cc2c(n1)-c1c(Cc3ccccc3)sc(C(N)=O)c1CC2
4. CCNCC1CN(c2c(F)cc3c(=O)c(C(=O)O)cn(C4CC4)c3c2Cl)CC1C (centres undefined)
5. NC(=O)c1coc2ccccc2c1=O

1: 237 to 240 °C; 2: 105 to 107 °C; 3: 212 to 213 °C; 4: 254 to 257 °C; 5: 220 to 225 °C

###

observationType: melting point

Past entries and their recorded results:
- compound: "CCN(CC)N(C(C)=O)c1nc2c(C)c3nc(N(C(C)=O)N(CC)CC)sc3cc2s1"
  melting point: "191 to 192 °C"
- compound: "CC(=O)Nc1ccc(C#Cc2c(F)c(F)nc(F)c2F)cc1"
  melting point: "189 to 190 °C"
- compound: "CNC(=O)N(O)C(C)C#Cc1ccc(C(C)C)cc1 (stereo unspecified)"
  melting point: "146 to 147 °C"
- compound: "Cn1c(=O)c2c(OCc3ccccc3)cccc2n2cnc(-c3noc(C4CC4)n3)c12"
  melting point: "221 to 224 °C"
- compound: "O=S(=O)(Nc1cc(F)ccc1F)c1ccccc1"
  melting point: "115 °C"

For each of the items listed, what is its melting point?
1. CCCCCCCCCCOC(=O)C1=C(C)NC(N)=C(C(=O)OCC)C1c1cccc([N+](=O)[O-])c1 (stereo unspecified)
2. CN(C)C(=O)c1cccc2c1nc(-c1c(F)cccc1F)n2Cc1c(F)cccc1F
3. COc1ccnc(CSc2nc3c(C)c(OC(F)F)c(C)cc3[nH]2)c1C

1: 190 to 191 °C; 2: 213 to 214 °C; 3: 190 to 191 °C

###

Please respond with reported melting point for every item in the list.

Past entries and their recorded results:
- compound: "Cc1ccc(N2C(=O)C(O)=C(C(=O)c3ccc(C(C)C)cc3)C2c2ccc(OC3CCOCC3)cc2)nn1 (centres undefined)"
  melting point: "275 °C"
- compound: "CCOc1c(Nc2cc(C3C(C(=O)OC)=C(C)NC(C)=C3C(=O)OC)ccc2F)c(=O)c1=O"
  melting point: "203 to 205 °C"
- compound: "O=S1(=O)NC(C2CCCCC2)Nc2cc3c(cc21)OCCO3 (centres undefined)"
  melting point: "196 to 200 °C"
- compound: "O=C(NC1=Cc2cncn2CN=C1)c1ccccc1"
  melting point: "158 to 160 °C"
- compound: "CN(C)C=CC=C(C#N)C(=O)N(C)C"
  melting point: "149 to 150 °C"

For each of the items listed, what is its melting point?
1. OCC(Oc1ccc(-c2ccccc2)cc1)c1ccccc1 (centres undefined)
2. CC(=O)OC1CSC(Oc2cccnc2-c2ccco2)C(OC(C)=O)C1OC(C)=O (centres undefined)

1: 126 to 127 °C; 2: 160 °C

For each of the items listed, what is its melting point?
1. COc1ccc(NC(=O)c2cc(O[Si](C)(C)C(C)(C)C)ccc2NC(=O)c2ccc(C(C)(C)C)cc2)cc1
2. Cc1[nH]c(-c2ccccc2)c2c1C(c1ccccc1)=NCC(=O)N2

207 °C
310 to 312 °C

Reference source: a melting point compilation (Tetko et al.; mined from patent text by program, amines drawn as free bases though some values may be those of a salt)
